Source: PubChem BioAssay (NCI)

System: MDA-MB-435 melanoma
Assay: NCI-60 one-dose screen, 48 h
Conditions: 10 µM unless noted
About 83,000 compounds went through this panel and 20% of them were active in at least one assay; those are over-represented in the sample as a whole. The source made the active and inactive calls. The calls were made as follows: active = growth percent below 10; inactive = the rest.
Select the correct class. Options are yes (active), no (inactive) and nothing else.

[in] Dear colleague, could you share the recorded outcome for COc1ccc(N(CC(=O)NCCC[Te]c2ccccc2)C(=O)c2ccccc2)cc1 when you have a moment?
[out] no

[in] Dear colleague, could you share the recorded outcome for N#CC(NC(=O)CCl)=C(Cl)Cl when you have a moment?
[out] yes

[in] Dear colleague, could you share the recorded outcome for S=P(SP(=S)(c1ccccc1)c1ccccc1)(c1ccccc1)c1ccccc1 when you have a moment?
[out] no

[in] Dear colleague, could you share the recorded outcome for C/C(=N/OC(=O)N(C)C)c1ccc(Cl)c(Cl)c1 when you have a moment?
[out] no

[in] Dear colleague, could you share the recorded outcome for COc1cc2c(cc1OC)[C@@H]1C(=O)c3ccc4c(c3O[C@@H]1CO2)C[C@H](C(C)C)O4 when you have a moment?
[out] no

***
[in] Dear colleague, could you share the recorded outcome for CCOC(=O)P(=O)(OCC)OCC when you have a moment?
[out] no

[in] Dear colleague, could you share the recorded outcome for CN1CCN(c2ccc(Cl)cc2)CC1 when you have a moment?
[out] no

[in] Dear colleague, could you share the recorded outcome for CC[C@H](C)[C@H](NC(=O)c1ncccn1)C(=O)N(C)[C@H](C[C@@H](OC(C)=O)c1nc(C(=O)N[C@@H](Cc2ccccc2)C[C@H](C)C(=O)OC)cs1)C(C)C when you have a moment?
[out] yes

[in] Dear colleague, could you share the recorded outcome for Cc1cc(NC(=O)NCCCOc2ccc(N3C(N)=NC(N)=NC3(C)C)cc2Cl)ccc1S(=O)(=O)F when you have a moment?
[out] no

[in] Dear colleague, could you share the recorded outcome for O=CC1(c2ccccc2)CCN(Cc2ccccc2)CC1 when you have a moment?
[out] no

[in] Dear colleague, could you share the recorded outcome for CCCC(C)SP(=S)(SC(C)CCC)SC(C)CCC (stereo not given) when you have a moment?
[out] no

[in] Dear colleague, could you share the recorded outcome for CC[C@H](C)[C@H]1O[C@]2(C=C[C@@H]1C)C[C@@H]1C[C@@H](C/C=C(\C)[C@@H](O[C@H]3C[C@H](OC)[C@@H](O[C@H]4C[C@H](OC)[C@@H](NC)[C@H](C)O4)[C@H](C)O3)[C@@H](C)/C=C/C=C3\CO[C@@H]4[C@H](O)C(C)=C[C@@H](C(=O)O1)[C@]34O)O2 when you have a moment?
[out] yes

[in] Dear colleague, could you share the recorded outcome for COc1ccc(N)cc1N when you have a moment?
[out] no

* * *

Tested on: A549/ATCC NSCLC
Assay: NCI-60 one-dose screen, 48 h (100 = growth as untreated, 0 = no growth, -100 = all killed)
Conditions: 10 µM unless noted
This is part of a sample that, as a whole, favours compounds with a hit. Of some 83,000 tested, about 20% had one in any assay. The source made the active and inactive calls. Rule for the calls: active = growth percent below 10; inactive = the rest.
Below is a list of entries, each paired with its recorded growth value.

GET /values?item= C=CC[PH+](c1ccccc1)c1ccccc1.C=CC[PH+](c1ccccc1)c1ccccc1.[Pt+2].[S-]c1nc2ccccc2[nH]1.[S-]c1nc2ccccc2[nH]1 &system= A549/ATCC NSCLC returns growth: -3.29% (active)

***
GET /values?item= N#CCc1ccc(CC#N)cc1 &system= A549/ATCC NSCLC returns growth: 82.1% (inactive)

GET /values?item= COc1ccc(N)cc1OC &system= A549/ATCC NSCLC returns growth: 105% (inactive)

GET /values?item= N#CC(N)c1ccccc1 (centres undefined) &system= A549/ATCC NSCLC returns growth: 109% (inactive)

GET /values?item= Cn1cc(-c2csc(-c3cn(CCCCN4CCOCC4)c4ccc(F)cc34)n2)c2cccnc21 &system= A549/ATCC NSCLC returns growth: 75.1% (inactive)

GET /values?item= O=[N+]([O-])c1ccc2scc3c4ccccc4nc-3c2c1 &system= A549/ATCC NSCLC returns growth: 18.9% (inactive)

GET /values?item= Cc1cc(N(CCCl)CCCl)ccc1C=Nc1ccc(-c2csc(-c3ccccc3)n2)cc1 &system= A549/ATCC NSCLC returns growth: 67.2% (inactive)

GET /values?item= CC[C@H](C)[C@H](NC(=O)C12CC(NC)(C1)C2)C(=O)N(C)[C@H](C[C@@H](OC(C)=O)c1nc(C(=O)N[C@@H](Cc2ccccc2)C[C@H](C)C(=O)OC)cs1)C(C)C &system= A549/ATCC NSCLC returns growth: 20% (inactive)

GET /values?item= CN1C2CCC1[C@@H](COC(=O)c1ccccc1)[C@@H](O)C2 (some centres undefined) &system= A549/ATCC NSCLC returns growth: 99.2% (inactive)

GET /values?item= C[C@]12CC[C@H]3[C@@H](CC=C4c5nc(N)sc5CC[C@@]43C)[C@@H]1CC[C@@H]2O &system= A549/ATCC NSCLC returns growth: 94.5% (inactive)

GET /values?item= C[C@]12CCC(=O)C[C@@H]1CC[C@@H]1[C@@H]2CC[C@]2(C)[C@@H](OC(=O)N(CCCl)N=O)CC[C@@H]12 &system= A549/ATCC NSCLC returns growth: 28.2% (inactive)

GET /values?item= O=S(=O)(c1ccc(O)cc1)c1ccccc1O &system= A549/ATCC NSCLC returns growth: 112% (inactive)

GET /values?item= C#COc1cccc(Nc2ncnc3cc(NC(=O)CF)ccc23)c1 &system= A549/ATCC NSCLC returns growth: 40% [6.25 µM] (inactive)

GET /values?item= CC[C@H](C)[C@H](NC(=O)[C@H]1CCCCN1C)C(=O)N(C)[C@H](C(=O)NC12CC(C(=O)N[C@@H](Cc3ccccc3)C[C@H](C)C(=O)OC)(C1)C2)C(C)C &system= A549/ATCC NSCLC returns growth: 92% (inactive)

GET /values?item= CC/C(=C(\c1ccc(OCCN2CCOCC2)cc1)c1ccc(OC(=O)Cc2ccccc2)cc1)c1ccc(Cl)cc1 &system= A549/ATCC NSCLC returns growth: 101% (inactive)

GET /values?item= N#CC(C#N)=C(C#N)C#N &system= A549/ATCC NSCLC returns growth: 99.9% (inactive)

GET /values?item= Cc1cc[c-]cc1.Fc1c[c-]c(-c2ccccn2)c(F)c1.[Pt+2].c1ccc([PH+](c2ccccc2)c2ccccn2)cc1 &system= A549/ATCC NSCLC returns growth: 41.8% (inactive)

GET /values?item= OCCN=Cc1c[nH]c2ccccc12 &system= A549/ATCC NSCLC returns growth: 95.2% (inactive)

* * *

System: SF-295 CNS
Test: NCI-60 one-dose screen, 48 h (100 = growth as untreated, 0 = no growth, -100 = all killed)
Conditions: 10 µM unless noted
The panel holds about 83,000 compounds, 20% with a hit somewhere; the sample as a whole holds those more often. Calls of active or inactive are those of the source. Rule for the calls: active = growth percent below 10; inactive = the rest.
Below is a list of entries, each paired with its recorded growth value.

Worked examples follow.
GET /values?item= CCCCCCCCCCCCCCCCCC1OCC(COC(=O)O[C@@H](C(=O)O[C@H]2C[C@@]3(O)[C@@H](OC(=O)c4ccccc4)[C@@H]4[C@]5(OC(C)=O)CO[C@@H]5C[C@H](O)[C@@]4(C)C(=O)[C@H](OC(C)=O)C(=C2C)C3(C)C)[C@@H](NC(=O)c2ccccc2)c2ccccc2)O1 (some centres not stated) &system= SF-295 CNS returns growth: 48.4% (inactive)

GET /values?item= CC1=C([Te]c2ccccc2)C(=O)c2ccccc2C1=O &system= SF-295 CNS returns growth: -34.5% (active)

GET /values?item= N#CC(N)c1ccccc1 (configuration not stated) &system= SF-295 CNS returns growth: 102% (inactive)

GET /values?item= COC(=O)[C@@H](C)C[C@H](Cc1ccccc1)NC(=O)c1cccc([C@@H](C[C@H](C(C)C)N(C)C(=O)[C@@H](NC(=O)[C@H]2CCCCN2C)C2CC2)OC(C)=O)n1 &system= SF-295 CNS returns growth: 3.47% (active)

GET /values?item= C[C@]12CCc3nc(-c4ccc(O)c(O)c4)sc3C1=CC[C@@H]1[C@@H]2CC[C@]2(C)C(=O)CC[C@@H]12 &system= SF-295 CNS returns growth: 104% (inactive)

GET /values?item= OCCN=Cc1c[nH]c2ccccc12 &system= SF-295 CNS returns growth: 89.9% (inactive)

GET /values?item= O=S(=O)(c1ccc(O)cc1)c1ccccc1O &system= SF-295 CNS returns growth: 112% (inactive)

GET /values?item= CCOC(=O)c1ccccc1C(=O)OCC &system= SF-295 CNS returns growth: 83.5% (inactive)

***
GET /values?item= N#CC(NC(=O)CCl)=C(Cl)Cl &system= SF-295 CNS returns growth: 89.9% (inactive)

GET /values?item= O=S(=O)(F)c1cccc(Cl)c1C[P+](c1ccccc1)(c1ccccc1)c1ccccc1 &system= SF-295 CNS returns growth: 92.3% (inactive)

GET /values?item= CC(C)COC(=O)Cc1ccccc1 &system= SF-295 CNS returns growth: 111% (inactive)

GET /values?item= Cc1cc(N(CCCl)CCCl)ccc1/C=N\NC(=O)c1cccnc1 &system= SF-295 CNS returns growth: 49.6% (inactive)
